system: stable HCV 1a RLuc replicon cells (genotype 1a H77 replicon); assay: microbe, parasite or virus in culture; type: cell-based; details: Hepatitis C virus, read-out: 1a (nM)
Readout label: EC50 (nM)
Field format: number, assumed nM, no unit text.

Some molecules with recorded EC50:
Data request: Query EC50 on stable HCV 1a RLuc replicon cells (genotype 1a H77 replicon) for "COC[C@H]1C[C@@H](c2ncc(-c3ccc4c(c3)COc3cc5c(ccc6nc([C@@H]7C[C@H]8C[C@H]8N7C(=O)[C@H](NC(=O)OC)c7ccccc7)[nH]c65)cc3-4)[nH]2)N(C(=O)[C@@H](NC(=O)OC)C(C)C)C1"
Data returned: 0.01

Data request: Recall the recorded EC50 for "COC(=O)N[C@H](C(=O)N1CCC[C@H]1c1nc2c([nH]1)CCc1cc3c(cc1-2)OCc1cc(-c2cnc([C@@H]4CCCN4C(=O)[C@H](NC(=O)OC)c4ccccc4)[nH]2)ccc1-3)C(C)C" with stable HCV 1a RLuc replicon cells (genotype 1a H77 replicon) and state it.
Data returned: 0.059

Data request: Provide the documented EC50 with stable HCV 1a RLuc replicon cells (genotype 1a H77 replicon) as the system for "CCC(=O)N[C@@H](C(=O)N1CCC[C@H]1c1ncc(-c2ccc3c(c2)COc2cc4c(ccc5nc([C@@H]6CCCN6C(=O)[C@@H](NC(=O)OC)C(C)C)[nH]c54)cc2-3)[nH]1)c1ccccc1"
Data returned: 0.057

---
Data request: What reported EC50 corresponds to "COC[C@H]1C[C@@H](c2ncc(-c3ccc4c(c3)COc3cc5c(cc3-4)CCc3nc([C@@H]4CC[C@H](C)N4C(=O)[C@@H](NC(=O)OC)C(C)C)[nH]c3-5)[nH]2)N(C(=O)[C@H](NC(=O)OC)c2ccccc2)C1" on stable HCV 1a RLuc replicon cells (genotype 1a H77 replicon)?
Data returned: 0.016

Data request: Report EC50 for "COC(=O)N[C@H](C(=O)N1C[C@@H](C)C[C@H]1c1nc2ccc3cc4c(cc3c2[nH]1)OCc1cc(-c2cnc([C@@H]3CCCN3C(=O)[C@H](NC(=O)OC)c3ccccc3)[nH]2)ccc1-4)C(C)C" tested on stable HCV 1a RLuc replicon cells (genotype 1a H77 replicon).
Data returned: 0.01

Data request: Report EC50 for "COC[C@@H]1C[C@@H](c2nc3c([nH]2)-c2cc4c(cc2CC3)-c2ccc(-c3cnc([C@@H]5CCCN5C(=O)[C@@H](NC(=O)OC)C(C)C)[nH]3)cc2CO4)N(C(=O)[C@@H](NC(=O)OC)C(C)C)C1" tested on stable HCV 1a RLuc replicon cells (genotype 1a H77 replicon).
Data returned: 0.036

Data request: Please state recorded EC50 (tested on stable HCV 1a RLuc replicon cells (genotype 1a H77 replicon)) of "COC(=O)N[C@H](C(=O)N1CCC[C@H]1c1ncc(-c2ccc3c(c2)COc2cc4c(ccc5nc([C@@H]6C[C@H](C)CN6C(=O)[C@@H](NC(=O)OC)C(C)C)[nH]c54)cc2-3)[nH]1)C(C)C"
Data returned: 0.011

Data request: Test system stable HCV 1a RLuc replicon cells (genotype 1a H77 replicon); read-out EC50; what value for "COC[C@H]1C[C@@H](c2nc3ccc4cc5c(cc4c3[nH]2)OCc2cc(-c3cnc([C@@H]4CC[C@H](C)N4C(=O)[C@@H](NC(=O)OC)C(C)C)[nH]3)ccc2-5)N(C(=O)[C@@H](NC(=O)OC)[C@@H](C)OC)C1" ?
Data returned: 0.014

Data request: // map "COC(=O)N[C@H](C(=O)N1CCC[C@H]1c1ncc(-c2ccc3c(c2)COc2cc4c(ccc5nc([C@@H]6C[C@H]7C[C@H]7N6C(=O)[C@@H](NC(=O)OC)C(C)C)[nH]c54)cc2-3)[nH]1)C(C)C" to recorded EC50 (system: stable HCV 1a RLuc replicon cells (genotype 1a H77 replicon))
Data returned: 0.005

Data request: Fill in the recorded EC50 for this molecule, with stable HCV 1a RLuc replicon cells (genotype 1a H77 replicon) as test system: "COC(=O)N[C@H](C(=O)N1C[C@@H](C)C[C@H]1c1nc2ccc3cc4c(cc3c2[nH]1)OCc1cc(-c2cnc([C@@H]3CC[C@H](C)N3C(=O)[C@@H](NC(=O)OC)C(C)C)[nH]2)ccc1-4)C(C)C"
Data returned: 0.007
